assay: Stability of cannabinoid compounds and Vitamin E components in Beverage 2 (AB Red) by LCMSMS; format: physicochemical; details: stored at 8° C., 11 days
Quick reference: Stability of Plant-Derived Cannabinoid Compounds in AB Red of the listed items.
Express it in µg/mL; write the number only.

>>> print(df.to_string())
                                   compound  measurement
0   CCCCCc1cc(O)c(C/C=C(\C)CCC=C(C)C)c(O)c1         4.77
1  CCCc1cc(O)c2c(c1)OC(C)(C)[C@@H]1CCC(C)=C[C@@H]21 [THCV, delta-9-tetrahydrocannabivarin]         3.24
2  CCCCCc1cc(O)c2c(c1)OC1(C)CCC3C1C2C3(C)C (centres unmarked)        0.501
3  CCCCCc1cc(O)c2c(c1)OC(C)(CCC=C(C)C)C=C2 (centres unmarked)        0.284

Now take the following compound into account.
Query: # lookup: Stability of Plant-Derived Cannabinoid Compounds in AB Red of CCCCCc1cc(O)c2c(c1)OC(C)(C)[C@@H]1CCC(C)=C[C@@H]21 [D9 THC, delta-9-tetrahydrocannabinol, reference compound]
Result: 12.8
